The values you see were collected from the supplement of paper PMC12764529.

Test: folding stability dG unfold from chymotrypsin proteolysis; higher = more stable
# folding stability dG unfold >= 2 kcal/mol gives Criterion met, anything below gives Criterion not met

Check if folding stability dG unfold >= 2 kcal/mol (inclusive). Item: SAGGSAGGMKTVEIEVTVKTPDGKEVKIKKARIEYDKETKTFHLYFENEETGEWYEVDEIKLKDSAGGSAGG [r6_329_TrROS_Hall] Criterion met

Next:
Check if folding stability dG unfold >= 2 kcal/mol (inclusive). Item: SAGGSLSNVTPLGTTPVTLPGSTVTITVYKSDTPGVVYVKIEYPETGVEKVRVLSPEELEKVIEELLSAGGS [r8_469_JUSTAS] Criterion met

----------
Field: folding stability dG unfold. Provide a value for each of the sequences that follow.
Test: folding stability dG unfold (combined trypsin and chymotrypsin); higher = more stable
Answers are plain numbers, in kcal/mol.

Record excerpt, results attached:
Answer with the recorded folding stability dG unfold for the sequence listed here: SAGGSAGETVYRVKIRVNGEELEIEVSAEELEALKALPGLEIELVRVEPAPPPEREETVVPEEEEESAGGSA [r15_443_TrROS_Hall] 3.43

Answer with the recorded folding stability dG unfold for the sequence listed here: SAGGSAGGSAGGSPNPLLPPVRPKVILKDPKTGTTKTFTTEEEAKKAVESGEYTVLKIESAGGSAGGSAGGS [r10_520_JUSTAS] 0.217

Parameters: items (list). Returns: folding stability dG unfold for each item.
1. SAGGSAGGSAMKYKVTVTTTPPDGTTTTTPTVVDFKSKEEIEEYVKKKAPKDTKVEVEIEPESAGGSAGGSA [r18_60_JUSTAS]
2. SAGGSAGGSAPPLKILRPEATVHPDGGVTVVAELEGGYLVVETVTFDPETGTASSSVEIVPLDSAGGSAGGS [r20_15_TrMRF]
3. SAGTELELEAEAEVLFPELGTRARVRVRARVRPTEDEVEVELEVEAEFEPLPLVPPIVSPEENPELAEGSAG [r14_435_TrMRF]
4. SAMPLDDLPAEQIRELVRSIMRKHGMPPDNVEVDVEVQRPPDGYYYITVDVEMRMNGKERKYKFTIWIPSAG [r14_703_TrROS]
5. SAGSKTITLEFNFEELKVKVTVTYDPEGEPTVTVTTTIYAKGGEKLETKTTTVTASPDDPVVKAFLESSSAG [r5_964_JUSTAS]
6. SAGGSAGGSAGKMYRITVTNENGEKLEIEVPEEVKTEEELKEELKKKIPNVVEVKIEEVPSAGGSAGGSAGG [r11_311_TrROS_Hall]
7. SASLEEILASLGYSVSRSVLPNGTEVVTARHPDGTTVTVTVTPDGTTVTVTPPDGTVTTLSVEDVRRALSAG [r14_578_JUSTAS]

1: 0.0447; 2: 0.705; 3: 3.08; 4: 3.75; 5: 2.77; 6: 0.377; 7: 3.03

----------
Assay: folding stability dG unfold from chymotrypsin proteolysis; higher = more stable
# folding stability dG unfold >= 2 kcal/mol gives criterion met, anything below gives criterion not met

Would you please look over these solved cases?
Check if folding stability dG unfold >= 2 kcal/mol (inclusive). Item: NIRITDIEMYPFPNNNQPQMEFTLEWPNGPRRTVEFELPGQEMEVYVDPKKGEIWFYFPNNGMFMKITIEPS [r1_125_TrROS] criterion met

Check if folding stability dG unfold >= 2 kcal/mol (inclusive). Item: SAGNIKIKEVEINDNTLTISYRMPGSGMWVKASIQADKGAIKIKSEYYPPKGKPIGEEEFTVPLDELKLSAG [r5_308_TrROS] criterion not met

Next:
Check if folding stability dG unfold >= 2 kcal/mol (inclusive). Item: SAGPLEELLARAERVEEDPSTGKRLVYTSDPELVRAALAEGAPDYTLTESPDDRRSALINFPPLPPGVLSAG [r14_115_JUSTAS] criterion not met

Check if folding stability dG unfold >= 2 kcal/mol (inclusive). Item: SKKTVTIELYVPNMTPEQLRALLEALGYKVKKEEFDEDRGVVRLTVELPEDGTTITITIVRPPLPPGEKPSA [r9_1090_TrROS_Hall] criterion met

Check if folding stability dG unfold >= 2 kcal/mol (inclusive). Item: SAGGSAMLRVFEKEHPGPFSITVLAGPGLSEEEIEELAEKLAEKKIEIEKKKIELEKKGKKPIFKKSAGGSA [r15_704_JUSTAS] criterion not met

Check if folding stability dG unfold >= 2 kcal/mol (inclusive). Item: SAGGSMPYKTLEESESEIYDPSNGNVKYKVKTETILLPDGTILVKETIYDPETGTTETKTYTIPKGSAGGSA [r2_13_JUSTAS] criterion not met

Check if folding stability dG unfold >= 2 kcal/mol (inclusive). Item: SATLTFTATLPDGSRVLEVTAEPRPDGTVTIRMRAEFTFAPGVTVTVPATITVPVPPPPALPPDDPRLFSAG [r14_95_TrMRF] criterion met

Check if folding stability dG unfold >= 2 kcal/mol (inclusive). Item: SAGGMELLGEVTVEKPGKPITFPIYRVPDEPREVVEVRELDPSTGKWTPIGTRELPPGEAERAIEELSAGGS [r8_423_JUSTAS] criterion not met

Check if folding stability dG unfold >= 2 kcal/mol (inclusive). Item: SAGGMKLKPVKEGEEIEIELEIVDKETKKVYKVKAKITVVKDKETKEYYVKIEIENPETGEKYTFLLKSAGG [r13_262_TrROS_Hall] criterion met

----------
Test: folding stability dG unfold (combined trypsin and chymotrypsin); higher = more stable
# folding stability dG unfold >= 3 kcal/mol gives Y, anything below gives N

Would you please look over these solved cases?
Check if folding stability dG unfold >= 3 kcal/mol (inclusive). Item: SAGGSAGGSMTTTVERSPSGKTTVTETETRKDAAGNEYTLVTTTTFDPNTTTSTTTTTVVPVSSAGGSAGGS [r12_57_JUSTAS] N

Check if folding stability dG unfold >= 3 kcal/mol (inclusive). Item: SAGGSAGGSAGMTITKTEDGTYRLTLTVTETLPNGSTVTRTVTLTVPLEDAEEILAALPPSAGGSAGGSAGG [r11_505_TrROS_Hall] N

Check if folding stability dG unfold >= 3 kcal/mol (inclusive). Item: SAGGSAMYYRFEIPRPDGVIEEIWIKMTPEEAKALVEALEADPNVASVKVEAITEEEARKLGIFENSAGGSA [r15_39_JUSTAS] Y

Check if folding stability dG unfold >= 3 kcal/mol (inclusive). Item: SAGGSAGGSAGMRYEIEVEEVPPGLVRIRVRVDGKEYTILISEEEAKRLAEELGVEIEPVSAGGSAGGSAGG [r17_109_TrROS_Hall] N

Could you now consider this next sequence?
Check if folding stability dG unfold >= 3 kcal/mol (inclusive). Item: SAGGSAGGMPVEIEILTPDNLLPTFTIPDPEEAEKIKSVEVFGDRFIKITLGDKEIVIEVYPDNSAGGSAGG [r6_206_TrMRF] N

----------
Test: folding stability dG unfold (combined trypsin and chymotrypsin); higher = more stable
QUANTITY NAME: folding stability dG unfold

Answer with the recorded folding stability dG unfold for the sequence listed here: SAGSETVLKTTTEPRTEPDSEVETTTEVYPDGKRITRTTTTYPNPGEGNPATPVTTTTTTVTELPPNELSAG [r5_224_JUSTAS] < -1 kcal/mol

Parameters: items (list). Returns: folding stability dG unfold for each item.
1. SAGGSAGGSSDTRTIPIPIDGYPVRISIDMNGSQTIEFPNPENKDDLKDLIPPGYNITEIEPWSAGGSAGGS [r12_9_TrROS]
2. SMKIKITAKTEEEREKAKKLLEEIAKELNIEIKIEKIEVIPKPKPEKVELSEEEKKKLKELEEEGLIEEESA [r9_472_TrROS_Hall]

["< -1 kcal/mol", "< -1 kcal/mol"]

----------
Assay: folding stability dG unfold (combined trypsin and chymotrypsin); higher = more stable
QUANTITY NAME: folding stability dG unfold (kcal/mol)
Answers are plain numbers, in kcal/mol.

Record excerpt, results attached:
Answer with the recorded folding stability dG unfold for the sequence listed here: SAGGSAGGSAGKPEVEVETRLIKIDEEKGYYLRVTRVRVKNEDGSEFEFLSIEIIPKEDLSAGGSAGGSAGG [r11_51_TrROS_Hall] 3.56

Answer with the recorded folding stability dG unfold for the sequence listed here: SAGGKPAKPTRLDFPDDDVKTVPANTKIILTRPDGSKLVIELPEEEFTAKPDEWVFETPTSKITFPIASAGG [r13_643_TrMRF] 0.725

Answer with the recorded folding stability dG unfold for the sequence listed here: SAGGSAGGSDPSATISFSFPLPDGSTININITITDEGSGPRIEIDITVTDANNNTAPAKFTIDSAGGSAGGS [r12_33_TrMRF] 1.65

Answer with the recorded folding stability dG unfold for the sequence listed here: SAGGSAGGSSKNGKPKPTIKVEMPDKPGPHEIPIPESDPDEAKTLAEELAQKWPGVPVRIEPTSAGGSAGGS [r12_601_TrROS] 0.582

Parameters: items (list). Returns: folding stability dG unfold for each item.
1. SAGAKVEIEFEGNKVTAKIEFGEGTVTVEGEVKLLPDGSALFKPKIYKDGKKIGEFTVLLDLPEGAEVLSAG [r5_221_TrMRF]
2. SAGFVMIKIELENPGNGKERELSIIIPYKSQEDARHIAEEIARELAKNGWKIKKIEVMVMPIPPPPDDPSAG [r5_660_TrROS]

1.84
5.1
